All figures here come from patent US20150203579A1.

target: T1, recombinant human PD-1 dimer expressed with a C-terminal mouse IgG2a Fc tag (human); experiment: BLI Octet: 100 nM hPD-1-mFc + 500 nM mAb to captured hPD-L1-hFc
T1 construct: also called hPD-1-mFc
T1 sequence (chain, as listed by the source limits assumed): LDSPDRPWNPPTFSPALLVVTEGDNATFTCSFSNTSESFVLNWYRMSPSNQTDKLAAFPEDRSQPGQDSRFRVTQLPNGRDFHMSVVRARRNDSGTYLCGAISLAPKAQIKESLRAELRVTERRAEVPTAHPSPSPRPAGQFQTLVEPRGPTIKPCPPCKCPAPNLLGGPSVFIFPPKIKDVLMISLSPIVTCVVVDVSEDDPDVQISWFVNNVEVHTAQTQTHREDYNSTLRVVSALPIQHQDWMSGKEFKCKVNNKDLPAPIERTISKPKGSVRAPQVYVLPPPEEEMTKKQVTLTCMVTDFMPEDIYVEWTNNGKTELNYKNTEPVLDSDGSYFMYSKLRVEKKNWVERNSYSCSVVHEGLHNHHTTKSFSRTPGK
Recorded binding of the mixture (nm), one value per entry.
# number then unit; no other words

Item: H2aM7796N (antibody, V domains shown, human variable regions, mouse IgG2a Fc; also called H2M7796N) VH: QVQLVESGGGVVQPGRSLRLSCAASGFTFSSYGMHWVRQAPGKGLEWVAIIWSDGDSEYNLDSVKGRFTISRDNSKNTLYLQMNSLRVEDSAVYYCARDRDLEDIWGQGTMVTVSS VL: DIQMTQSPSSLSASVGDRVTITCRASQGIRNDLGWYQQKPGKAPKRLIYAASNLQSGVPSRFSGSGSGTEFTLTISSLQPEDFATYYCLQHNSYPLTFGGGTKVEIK | binding of the mixture (nm): -0.02 nm

The reported binding of the mixture (nm) of the binder H2aM7791N (antibody, V domains shown, human variable regions, mouse IgG2a Fc; also called H2M7791N) VH: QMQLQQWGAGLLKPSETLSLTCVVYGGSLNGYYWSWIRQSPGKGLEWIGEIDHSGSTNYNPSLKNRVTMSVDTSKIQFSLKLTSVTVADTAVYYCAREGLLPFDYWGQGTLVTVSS VL: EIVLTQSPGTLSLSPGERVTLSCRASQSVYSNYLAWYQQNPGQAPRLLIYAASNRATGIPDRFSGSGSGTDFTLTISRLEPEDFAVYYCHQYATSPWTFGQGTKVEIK was 0.23 nm

Next:
Reported binding of the mixture (nm) for H1M7789N (antibody, V domains shown, human variable regions, mouse IgG1 Fc) VH: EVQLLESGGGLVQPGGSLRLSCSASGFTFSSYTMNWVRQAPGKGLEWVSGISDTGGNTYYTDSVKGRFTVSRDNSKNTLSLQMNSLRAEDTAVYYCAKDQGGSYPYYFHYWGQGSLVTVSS VL: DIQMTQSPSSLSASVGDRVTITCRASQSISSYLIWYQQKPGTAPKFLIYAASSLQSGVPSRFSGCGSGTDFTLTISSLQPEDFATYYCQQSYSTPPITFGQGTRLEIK was 0.05 nm
